The values you see were collected from PubChem BioAssay (NCI).

Task for the reader: assign each of the following compounds its reported growth.
tested on: HCT-116 colon; test: NCI-60 one-dose screen, 48 h (100 = growth as untreated, 0 = no growth, -100 = all killed); settings: 10 µM unless noted
This is part of a sample that, as a whole, favours compounds with a hit. Of some 83,000 tested, about 20% had one in any assay.
Report the value in % with no unit label.

Lookup: // lookup growth for CCCCCN(CCCCC)CC(O)c1cc(Cl)ccc1OC (stereo unspecified)
Found: 4.09

Lookup: // lookup growth for `COc1ccc(C(O)(C(=O)O)c2ccc(OC)cc2)cc1`
Found: 83.2

Lookup: // lookup growth for N#CC1C(C#N)C2CCC1C1C2N1c1ccccc1 (stereo unspecified)
Found: 95.1

Lookup: // lookup growth for `O=[N+]([O-])/C=C\c1ccc(Cl)c(Cl)c1`
Found: -52.8

Lookup: // lookup growth for COc1cc(C=C2c3ccccc3C(=O)c3ccccc32)ccc1OCCCCOc1cc2c(cc1OC)C(=O)N1CCCC1C=N2 (stereo unspecified)
Found: -85.3

Lookup: // lookup growth for `N#CCCNc1ccccc1`
Found: 108

Lookup: // lookup growth for CN1CC(CNC(=O)OCc2ccccc2)CC2c3cccc4c3c(cn4C)CC21 (stereo unspecified)
Found: 31.7

Lookup: // lookup growth for `COc1ccc(N(CC(=O)NCCC[Te]c2ccccc2)C(=O)CNC(=O)OC(C)(C)C)cc1`
Found: -3.11

Lookup: // lookup growth for `CCCCCCCC[N+](C)(CCCCCCCC)CCCCCCCC`
Found: -100

Lookup: // lookup growth for `COC(=O)C12CC(NC(=O)c3csc([C@@H](C[C@H](C(C)C)N(C)C(=O)[C@@H](NC(=O)[C@H]4CCCCN4C)C(C)C)OC(C)=O)n3)(C1)C2`
Found: 4.37

Lookup: // lookup growth for `COC(=O)CCc1c[nH]c2ccc(N(CCCl)CCCl)cc12`
Found: 53.1
